- TARGET: T1, CvTA (Chromobacterium violaceum, UniProt Q7NWG4)
- T1 construct: IMAC-purified recombinant from E. coli BL21 (DE3) Star; dimer
- T1 sequence (Q7NWG4 1-459): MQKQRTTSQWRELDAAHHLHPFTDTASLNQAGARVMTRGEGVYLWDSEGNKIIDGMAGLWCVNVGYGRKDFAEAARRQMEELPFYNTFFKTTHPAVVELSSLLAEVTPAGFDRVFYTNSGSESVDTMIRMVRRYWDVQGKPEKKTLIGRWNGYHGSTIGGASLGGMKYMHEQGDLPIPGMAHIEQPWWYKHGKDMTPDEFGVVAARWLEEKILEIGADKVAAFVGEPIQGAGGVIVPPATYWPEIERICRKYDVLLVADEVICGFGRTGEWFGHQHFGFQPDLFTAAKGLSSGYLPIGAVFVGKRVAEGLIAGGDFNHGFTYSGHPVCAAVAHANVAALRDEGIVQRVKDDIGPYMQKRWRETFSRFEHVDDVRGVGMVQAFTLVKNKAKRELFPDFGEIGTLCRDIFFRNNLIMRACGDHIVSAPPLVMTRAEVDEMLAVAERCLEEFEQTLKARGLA
- EXPERIMENT_DESCRIPTION: differential scanning fluorimetry (SYPRO Orange), T1/[…] vs PLP, 1-site fit
QUANTITY_MEASURED: Kd (µM)
Numbers only; they are read as µM.

**Query** What does the data say about its Kd? Entry: Cc1ncc(COP(=O)(O)O)c(C=O)c1O
**Result** 59

----------
- TARGET: PfTA (Pseudomonas fluorescens)
- EXPERIMENT_DESCRIPTION: differential scanning fluorimetry (SYPRO Orange), T1/[…] vs PLP, 1-site fit
- RUN_CONDITIONS: apo form, 1 mg/mL protein, PLP 1–250 μM, 50 mM phosphate pH 8; cofactor forms internal aldimine (covalent)
QUANTITY_MEASURED: Kd

**Query** Query: Kd; subject: Cc1ncc(COP(=O)(O)O)c(C=O)c1O
**Result** 14.8 µM
